Source: paper PMC8698657

- experimental-details: Trans-enterocyte transport of CA in Caco-2 cell monolayer
- Type: in vitro ADME, human
- applied-conditions: human, Caco-2, CA 50 μM, 1.5 h
measured-parameter: efflux ratio at 1.5 h, 50 μM

Fill in efflux ratio at 1.5 h, 50 μM for record "CC(C)c1cc2c(c(O)c1O)[C@@]1(C(=O)O)CCCC(C)(C)[C@@H]1CC2"
0.52

---

- experimental-details: Effect of verapamil, PEG 400 and EDTA on trans-enterocyte transport of CA
- Type: in vitro ADME, human
- applied-conditions: human, Caco-2, CA 50 μM, 2.0 h, + 5 mmoL/L EDTA; read-out: Papp AP to BL
measured-parameter: Papp A→B at 2 h, 50 μM (×10⁻⁶ cm/s)
Answer in ×10⁻⁶ cm/s, number only, no unit symbol.

Fill in Papp A→B at 2 h, 50 μM for record "CC(C)c1cc2c(c(O)c1O)[C@@]1(C(=O)O)CCCC(C)(C)[C@@H]1CC2"
0.92

---

- experimental-details: Effect of verapamil, PEG 400 and EDTA on trans-enterocyte transport of CA
- Type: in vitro ADME, human
- applied-conditions: human, Caco-2, CA 50 μM, 2.5 h, + 5 mmoL/L EDTA; read-out: Papp AP to BL
measured-parameter: Papp A→B at 2.5 h, 50 μM (nm/s)
Answer in nm/s, number only, no unit symbol.

Fill in Papp A→B at 2.5 h, 50 μM for record "CC(C)c1cc2c(c(O)c1O)[C@@]1(C(=O)O)CCCC(C)(C)[C@@H]1CC2"
9.5

---

- experimental-details: Trans-enterocyte transport of CA in Caco-2 cell monolayer
- Assay type: in vitro ADME, human
- applied-conditions: human, Caco-2, CA 75 μM, Average of 0.5-3.0 h; read-out: Papp AP-BL
measured-parameter: Papp A→B at 75 μM (×10⁻⁶ cm/s)
Answer in ×10⁻⁶ cm/s, number only, no unit symbol.

Fill in Papp A→B at 75 μM for record "CC(C)c1cc2c(c(O)c1O)[C@@]1(C(=O)O)CCCC(C)(C)[C@@H]1CC2"
1.04

---

- experimental-details: Trans-enterocyte transport of CA in Caco-2 cell monolayer
- Format: in vitro ADME, human
- applied-conditions: human, Caco-2, CA 100 μM, 1.5 h; read-out: Papp AP-BL
measured-parameter: Papp A→B at 1.5 h, 100 μM (×10⁻⁶ cm/s)
Answer in ×10⁻⁶ cm/s, number only, no unit symbol.

Fill in Papp A→B at 1.5 h, 100 μM for record "CC(C)c1cc2c(c(O)c1O)[C@@]1(C(=O)O)CCCC(C)(C)[C@@H]1CC2"
2.36

---

- experimental-details: Trans-enterocyte transport of CA in Caco-2 cell monolayer
- Type: in vitro ADME, human
- applied-conditions: human, Caco-2, CA 100 μM, 1.5 h, CA alone; read-out: Papp AP to BL
measured-parameter: Papp A→B at 1.5 h, 100 μM (×10⁻⁶ cm/s)
Answer in ×10⁻⁶ cm/s, number only, no unit symbol.

Fill in Papp A→B at 1.5 h, 100 μM for record "CC(C)c1cc2c(c(O)c1O)[C@@]1(C(=O)O)CCCC(C)(C)[C@@H]1CC2"
2.36

---

- experimental-details: Trans-enterocyte transport of CA in Caco-2 cell monolayer
- Type: in vitro ADME, human
- applied-conditions: human, Caco-2, CA 100 μM, Average of 0.5-3.0 h; read-out: Papp AP-BL
measured-parameter: Papp A→B at 100 μM (×10⁻⁶ cm/s)
Answer in ×10⁻⁶ cm/s, number only, no unit symbol.

Fill in Papp A→B at 100 μM for record CC(C)c1cc2c(c(O)c1O)[C@@]1(C(=O)O)CCCC(C)(C)[C@@H]1CC2 [CA, Carnosic acid]
1.2
